Tested target: T1, RADIL, Q96JH8
T1 sequence (Q96JH8 971-1071, limits assumed, looked up): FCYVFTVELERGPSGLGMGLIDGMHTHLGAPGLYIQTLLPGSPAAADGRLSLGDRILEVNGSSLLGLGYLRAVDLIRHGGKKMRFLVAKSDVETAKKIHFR
Test method notes: holdup assay
Design: key: below the threshold = too weak to quantify, mostly under pKd 3.1 to 4
Assay setup: plain residues with an end cap or a label only (N-terminal biotin on a linker: ttds)
Measurement name: pKd

Here's what some known entries look like.
KKYVDAETSL [SLC4A7, Q9Y6M7]; below the threshold
FHPLGADSQV [SLC2A1, P11166]; below the threshold
QRQARSETLV [HPV59-E6, Q81964]; 4.47
RLPKIKETTV [FRMPD4, Q14CM0]; below the threshold
PVRVCEETSL [OTULIN, Q96BN8]; below the threshold

Read the next record carefully.
Query block: # return recorded pKd for input SSLQSLETSV [ATP2B4, P23634]
Result block: 3.69
